Provenance of the data: paper PMC9688225

Target: GluA1 AMPA receptor subunit (flip isoform) (Homo sapiens, UniProt P42261)
Construct: expressed in transfected cells; host or cells: HEK293
Sequence (P42261 19-906 isoform P42261-2 limits assumed): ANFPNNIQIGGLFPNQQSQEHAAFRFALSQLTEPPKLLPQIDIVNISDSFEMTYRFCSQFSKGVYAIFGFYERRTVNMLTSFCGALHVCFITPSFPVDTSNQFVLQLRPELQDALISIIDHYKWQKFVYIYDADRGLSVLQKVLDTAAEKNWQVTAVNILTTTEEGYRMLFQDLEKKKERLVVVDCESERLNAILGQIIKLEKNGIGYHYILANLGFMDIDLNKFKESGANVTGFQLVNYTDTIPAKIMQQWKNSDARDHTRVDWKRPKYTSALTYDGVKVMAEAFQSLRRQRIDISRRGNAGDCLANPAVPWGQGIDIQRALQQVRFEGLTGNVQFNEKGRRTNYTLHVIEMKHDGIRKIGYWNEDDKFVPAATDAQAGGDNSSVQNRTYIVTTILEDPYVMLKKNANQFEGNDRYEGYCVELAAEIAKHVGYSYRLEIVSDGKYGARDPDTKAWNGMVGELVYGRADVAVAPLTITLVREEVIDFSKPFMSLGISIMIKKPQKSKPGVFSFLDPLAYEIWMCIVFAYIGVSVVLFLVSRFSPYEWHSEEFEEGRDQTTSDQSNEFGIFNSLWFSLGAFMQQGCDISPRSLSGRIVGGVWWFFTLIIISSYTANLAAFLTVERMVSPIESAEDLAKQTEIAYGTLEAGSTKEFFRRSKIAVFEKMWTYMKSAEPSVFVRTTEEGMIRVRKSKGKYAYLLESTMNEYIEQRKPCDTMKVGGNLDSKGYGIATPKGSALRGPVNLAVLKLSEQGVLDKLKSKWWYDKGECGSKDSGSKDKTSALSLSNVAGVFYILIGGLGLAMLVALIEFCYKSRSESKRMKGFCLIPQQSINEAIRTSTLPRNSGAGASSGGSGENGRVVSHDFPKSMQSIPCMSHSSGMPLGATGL
Test: Whole-cell patch-clamp electrophysiology, homomeric GluA1 expressed in HEK293 cells
Assay type: cell-based
Settings: 10 mM glutamate + 12 µM compound, −60 mV, pH 7.4, 22 °C, mean ± SEM, n = 10
Entries and their Amplitude (glutamate + compound)

Recorded results for 3 molecules are shown here.
MOLECULE: O=C(CCCCC1CCSS1)OCCCO (centres unmarked) [LA1, 1-Hydroxy-3-Lipo Ester]
TESTED SYSTEM: GluA1 AMPA receptor subunit (flip isoform) (Homo sapiens, UniProt P42261)
MEASUREMENT: 89±12.0 pA
//
MOLECULE: O=C(CCCCC1CCSS1)OCCCO[N+](=O)[O-] (centres unmarked) [LA2, 1-Nitrooxy–propane-3-lipoyl ester]
TESTED SYSTEM: GluA1 AMPA receptor subunit (flip isoform) (Homo sapiens, UniProt P42261)
MEASUREMENT: 79±11.0 pA
//
MOLECULE: O=C(O)CCCCC1CCSS1 (stereo not drawn) [α-LA, alpha-Lipoic acid, reference compound]
TESTED SYSTEM: GluA1 AMPA receptor subunit (flip isoform) (Homo sapiens, UniProt P42261)
MEASUREMENT: 102±14.0 pA

Q: Request body: readout Amplitude (glutamate + compound), system GluA1 AMPA receptor subunit (flip isoform) (Homo sapiens, UniProt P42261), query O=C(CCCCC1CCSS1)OCCCCCCO (centres unmarked) [LA4, 1-Hydroxy-6-Lipoester] . Return the value.
Result: 121±18 pA

Q: Request body: readout Amplitude (glutamate + compound), system GluA1 AMPA receptor subunit (flip isoform) (Homo sapiens, UniProt P42261), query O=C(CCCCC1CCSS1)OCCCCCCO[N+](=O)[O-] (centres unmarked) [LA3, 1-Nitrooxy–Hexane-6-lipoyl ester] . Return the value.
Result: 114±12.0 pA
